Each record here notes measured koff.
tgt: T1, recombinant canine β NGF (canine, UniProt Q29074 110-229 (pig entry))
T1 construct: also called canine NGF
T1 chain: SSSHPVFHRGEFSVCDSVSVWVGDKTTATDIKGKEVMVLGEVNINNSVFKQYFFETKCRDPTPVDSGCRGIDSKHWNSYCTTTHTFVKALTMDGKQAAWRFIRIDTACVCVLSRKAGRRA
measurement.notes: SPR (Biacore), mAb captured on goat anti-mouse IgG Fc, canine NGF injected; Average
Write the answer as a number in s⁻¹, unit excluded.

1. PR-1254980 (antibody, mouse IgG1, V domains shown, also called 23F1; ML129-23F1.4G3) VH: EVQLQQSGAELVKPGASVKLSCTASGFNIKDTYIYWVKQRPEQGLEWIGRIDPANGNTIYASKFQGKATITADTSSNTAYMQLSSLTSGDTAVYYCAGYGYYAYWGQGTTLTVSS VL: DVVLTQTPLSLPVNIGDQASISCKSTKSLLNGDGFTYLDWYLQKPGQSPQLLIYLVSNRFSGVPDRFSGSGSGTDFTLKISRVEAEDLGVYYCFESNYLFTFGSGTKLEMKR
0.000231
2. PR-1254973 (antibody, mouse IgG2b, V domains shown, also called 2B12; ML129-2B12.5G9) VH: QVQLQQPGAELVKPGASVKLSCKASGYTFTNYWMHWVKQRPGQGLEWIGRIDPYGGGTKHNEKFKRKATVTADKSSSTAYILLSSLTSEDSAVYYCTRSGYDYYFDVWGTGTTVTVSS VL: DIQMTQSPASLSASVGETVTVTCRASENIYSFLAWHQQKQGKSPQLLVYNANTLAEGVPSRFSGSGSGTQFSLKINSLQPEDFGSYYCQHHFGTPFTFGSGTKLEIKR
0.00013
3. PR-1254981 (antibody, mouse IgG1, V domains shown, also called 14A9; ML130-14A9.5B12) VH: EVQLVESGGGAVKPGGSLTLSCAASGFTFSNHYMYWVRQTPEKRLEWVASISDGGAYTFYPDTVKGRFTISRDNVNNNLYLQMRHLKSEDTAMYYCTREESANNGFAFWGQGTLVTVSA VL: DVLMTQTPLSLPVSLGDQASISCRSSQSILHSNGNTYLEWYLQKPGQSPNLLIYRVSNRFSGVPDRFSGSGSGTDFTLKISRVEAEDLGVYYCFQGAHVPFTFGSGTKLEIKR
0.000134

State the recorded koff for this entry: PR-1254977 (antibody, mouse IgG1, V domains shown, also called 21D4; ML129-21D4.4A11) VH: EVQLQQSGAELVKPGASVKLSCTASGFNIKDTYIYWVKQRPEQGLEWIGRIDPANGNTIYASKFQGKASITADTSSNTAYMQLSSLTSGDTAVYYCAGYGYYAYWGQGTTLTVSS VL: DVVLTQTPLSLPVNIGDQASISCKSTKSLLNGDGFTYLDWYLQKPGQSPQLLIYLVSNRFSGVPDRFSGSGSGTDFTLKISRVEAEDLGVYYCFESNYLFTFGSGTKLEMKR
0.00015
